Below, each entry is listed alongside its reported IC50.
Tested on: MIA PaCa-2 cells
method.description: Growth inhibition activity on KRAS-G12C mutant cell line (CellTiter-Glo 3D)
Format: cell-based, human
measurement.conditions: Homo sapiens, MIA PaCa-2, 72 h, MIA PaCa-2, 3-day culture with compound; Table 3-1
quantity: IC50 (nM)

[[record]]
compound = "COc1cc2c(nc(C)n2C)c2c1-c1cccn3c(C(=O)c4cc(F)c(NC(=O)/C=C/CNC(C)(C)C)c(F)c4)cc(c13)CCN2C"
reading = 10.6

[[record]]
compound = "COCc1nc2c3c(c(C(F)(F)F)cc2n1C)-c1cccn2c(C(=O)c4cc(F)c(NC(=O)/C=C/CN[C@H]5CCOC5)c(F)c4)cc(c12)C(=O)N(C)C3"
reading = 95.4

[[record]]
compound = "CN1CCc2cc(C(=O)c3cc(F)c(NC(=O)/C=C/CN4CC[C@H]4CO)c(F)c3)n3cccc(c23)-c2c(C(F)(F)F)cc3c(ncn3C)c21 (single isomer, unassigned)"
reading = 3.67

[[record]]
compound = "Cc1cc2c(nc(C)n2C)c2c1-c1cccc3c(C(=O)c4cc(F)c(NC(=O)/C=C/CNC5COC(C)(C)C5)c(F)c4)cn(c13)CCN2C (stereo not drawn)"
reading = 13.7

[[record]]
compound = "CO[C@H]1CC[C@H](NC/C=C/C(=O)Nc2c(F)cc(C(=O)c3cn4c5c(cccc35)-c3c(C(F)(F)F)cc5c(nc(C)n5C)c3N(C)CC4)cc2F)CC1 (single isomer, unassigned)"
reading = 3.36

[[record]]
compound = "CC(=O)N1CCC(C)(NC/C=C/C(=O)Nc2c(F)cc(C(=O)c3cc4c5c(cccn35)-c3c(C(F)(F)F)cc5c(ncn5C)c3N(C)CC4)cc2F)CC1"
reading = 6.11

